Give MIC for every item shown.
tested on: Mycobacterium avium subsp. avium ATCC 25291
Reply with just the number (in µg/mL).

Prompt: Recorded MIC for CCCOc1ccc(-c2cn(CCN3CCCCC3)c3ccccc3c2=O)cc1 , please?
Response: 8

Prompt: What about this molecule? CSc1ccc2c(c1)N(CCC1CCCCN1C)c1ccccc1S2 (stereo not given)
Response: 16

Prompt: What about this molecule? CCCOc1ccc(-c2cn(CCN(CC)CC)c3ccccc3c2=O)cc1
Response: 16

Prompt: What about this molecule? CCCOc1ccc(-c2cn(CCN3CCCCCC3)c3ccccc3c2=O)cc1
Response: 8

Prompt: What about this molecule? CN(C)CCCN1c2ccccc2Sc2ccc(Cl)cc21
Response: 8

====

system: Mycobacterium avium subsp. avium ATCC 25291
Property Name: MIC

Prompt: Recorded MIC for CCCOc1ccc(-c2cn(CCN3CCCCC3)c3ccccc3c2=O)cc1 , please?
Response: < 0.5 µg/mL

Prompt: What about this compound? CSc1ccc2c(c1)N(CCC1CCCCN1C)c1ccccc1S2 (stereo not given)
Response: 4 µg/mL

Prompt: What about this compound? CCCOc1ccc(-c2cn(CCN3CCCCCC3)c3ccccc3c2=O)cc1
Response: < 0.5 µg/mL

Prompt: What about this compound? CCCOc1ccc(-c2cn(CCN(CC)CC)c3ccccc3c2=O)cc1
Response: 8 µg/mL

Prompt: What about this compound? CN(C)CCCN1c2ccccc2Sc2ccc(Cl)cc21
Response: < 0.5 µg/mL

====

Give MIC for every item shown.
system: Mycobacterium avium; assay: Antimycobacterial activity against Mycobacterium avium isolate MAV4 assessed as reduction in bacterial viability incubated for 3 days by MTT assay; format: organism-based; conditions: 72 h
Reply with just the number (in µg/mL).

Prompt: Recorded MIC for CC[n+]1c(-c2ccccc2)c2cc(N)ccc2c2ccc(N)cc21.[Br-] [HOMIDIUM BROMIDE] , please?
Response: 50

Prompt: What about this compound? CC[C@H]1OC(=O)[C@H](C)[C@@H](O[C@H]2C[C@@](C)(OC)[C@@H](O)[C@H](C)O2)[C@H](C)[C@@H](O[C@@H]2O[C@H](C)C[C@H](N(C)C)[C@H]2O)[C@](C)(O)C[C@@H](C)C(=O)[C@H](C)[C@@H](O)[C@]1(C)O
Response: 512

Prompt: What about this compound? CN(C)CCCN1c2ccccc2Sc2ccc(Cl)cc21
Response: 30

Prompt: What about this compound? CC1COc2c(N3CCN(C)CC3)c(F)cc3c(=O)c(C(=O)O)cn1c23 (stereo unspecified)
Response: 16

Prompt: What about this compound? CSc1ccc2c(c1)N(CCC1CCCCN1C)c1ccccc1S2 (stereo unspecified)
Response: 30

Prompt: What about this compound? COc1ccc(CCN(C)CCCC(C#N)(c2ccc(OC)c(OC)c2)C(C)C)cc1OC (stereo unspecified)
Response: 800

====

test system: Mycobacterium avium; settings: 104
Property Name: MIC (µg/mL)
Reply with just the number (in µg/mL).

Prompt: Field: MIC (Mycobacterium avium). Entry: CCCOc1ccc(-c2cn(CCN(CC)CC)c3ccccc3c2=O)cc1
Response: 1

Prompt: What about this compound? CSc1ccc2c(c1)N(CCC1CCCCN1C)c1ccccc1S2 (stereo not given)
Response: 2

Prompt: What about this compound? CN(C)CCCN1c2ccccc2Sc2ccc(Cl)cc21
Response: 0.5

====

system: Mycobacterium avium; test: Antimycobacterial activity against Mycobacterium avium ATCC 25291 assessed as reduction in bacterial viability incubated for 3 days by MTT assay; type: organism-based; settings: mycobacterium avium subsp. avium atcc 25291, 72 h
Property Name: log10 MIC (log10 of the value in µg/mL)
Scale: decimal log of MIC, MIC in µg/mL.

Prompt: Field: log10 MIC (Mycobacterium avium). Entry: O=C(O)c1cn(C2CC2)c2cc(N3CCNCC3)c(F)cc2c1=O
Response: 1.51

Prompt: What about this compound? CCCOc1ccc(-c2cn(CCN3CCCCC3)c3ccccc3c2=O)cc1
Response: 2.41

Prompt: What about this compound? CC[C@H]1OC(=O)[C@H](C)[C@@H](O[C@H]2C[C@@](C)(OC)[C@@H](O)[C@H](C)O2)[C@H](C)[C@@H](O[C@@H]2O[C@H](C)C[C@H](N(C)C)[C@H]2O)[C@](C)(O)C[C@@H](C)CN(C)[C@H](C)[C@@H](O)[C@]1(C)O
Response: 1.81

Prompt: What about this compound? COc1ccc(CCN(C)CCCC(C#N)(c2ccc(OC)c(OC)c2)C(C)C)cc1OC (stereo unspecified)
Response: 2.90

Prompt: What about this compound? CC1COc2c(N3CCN(C)CC3)c(F)cc3c(=O)c(C(=O)O)cn1c23 (stereo unspecified)
Response: 1.81

Prompt: What about this compound? CC[n+]1c(-c2ccccc2)c2cc(N)ccc2c2ccc(N)cc21.[Br-] [HOMIDIUM BROMIDE]
Response: 1.70

Prompt: What about this compound? CCCOc1ccc(-c2cn(CCN(CC)CC)c3ccccc3c2=O)cc1
Response: 2.41

Prompt: What about this compound? CCCOc1ccc(-c2cn(CCN3CCCCCC3)c3ccccc3c2=O)cc1
Response: 2.41

Prompt: What about this compound? CSc1ccc2c(c1)N(CCC1CCCCN1C)c1ccccc1S2 (stereo unspecified)
Response: 1.48

Prompt: What about this compound? CN(C)CCCN1c2ccccc2Sc2ccc(Cl)cc21
Response: 1.48

Prompt: What about this compound? CC[C@H]1OC(=O)[C@H](C)[C@@H](O[C@H]2C[C@@](C)(OC)[C@@H](O)[C@H](C)O2)[C@H](C)[C@@H](O[C@@H]2O[C@H](C)C[C@H](N(C)C)[C@H]2O)[C@](C)(OC)C[C@@H](C)C(=O)[C@H](C)[C@@H](O)[C@]1(C)O
Response: 0.90
